- Tested on: Salmonella enterica serovar Typhimurium TA98
- run_description: Salmonella/microsome assay, TA98
- cond: +S9, 15 µM
Entries and their measured revertant His+ colonies TA98 follow.

# molecule, revertant His+ colonies TA98
measured = [
    ("CC(=O)Nc1ccc(Cl)cc1C(F)(F)C(=O)NCC[C@@H]1C[C@H](CC(=O)OC(C)(C)C)OC(C)(C)O1 [Compound 13c]", 35),
    ("CC(=O)Nc1ccccc1C(F)(F)C(=O)NCC[C@@H]1C[C@H](CC(=O)OC(C)(C)C)OC(C)(C)O1 [Compound 13a]", 25),
    ("CC(=O)Nc1ccc(C)cc1C(F)(F)C(=O)NCC[C@@H]1C[C@H](CC(=O)OC(C)(C)C)OC(C)(C)O1 [Compound 13b]", 27),
    ("CC(=O)Nc1ccc(Br)cc1C(F)(F)C(=O)NCC[C@@H]1C[C@H](CC(=O)OC(C)(C)C)OC(C)(C)O1 [Compound 13d]", 28),
]

* * *

- System: Salmonella enterica serovar Typhimurium TA97
- run_description: Salmonella/microsome assay, TA97
- cond: −S9, 150 µM
parameter: revertant His+ colonies TA97

# molecule, parameter, data_value
data = [
    ("CC(=O)Nc1ccc(Br)cc1C(F)(F)C(=O)NCC[C@@H]1C[C@H](CC(=O)OC(C)(C)C)OC(C)(C)O1 [Compound 13d]", "revertant His+ colonies TA97", 134),
    ("CC(=O)Nc1ccc(Cl)cc1C(F)(F)C(=O)NCC[C@@H]1C[C@H](CC(=O)OC(C)(C)C)OC(C)(C)O1 [Compound 13c]", "revertant His+ colonies TA97", 70),
    ("CC(=O)Nc1ccc(C)cc1C(F)(F)C(=O)NCC[C@@H]1C[C@H](CC(=O)OC(C)(C)C)OC(C)(C)O1 [Compound 13b]", "revertant His+ colonies TA97", 74),
    ("CC(=O)Nc1ccccc1C(F)(F)C(=O)NCC[C@@H]1C[C@H](CC(=O)OC(C)(C)C)OC(C)(C)O1 [Compound 13a]", "revertant His+ colonies TA97", 69),
]

* * *

- run_description: in vitro
- Format: cell-based
- cond: mouse
Entries and their measured CC50 at 96 h follow.

# compound, CC50 at 96 h (µM)
measured = [
    ("CC(=O)Nc1ccc(Cl)cc1C(F)(F)C(=O)NCC[C@@H]1C[C@H](CC(=O)OC(C)(C)C)OC(C)(C)O1 [Compound 13c]", 153),
    ("CC(=O)Nc1ccccc1C(F)(F)C(=O)NCC[C@@H]1C[C@H](CC(=O)OC(C)(C)C)OC(C)(C)O1 [Compound 13a]", 112),
    ("CC(=O)Nc1ccc(C)cc1C(F)(F)C(=O)NCC[C@@H]1C[C@H](CC(=O)OC(C)(C)C)OC(C)(C)O1 [Compound 13b]", 114),
    ("O=C(Cn1ccnc1[N+](=O)[O-])NCc1ccccc1 [Benznidazole, benznidazole, reference compound]", 169),
    ("CC(=O)Nc1ccc(Br)cc1C(F)(F)C(=O)NCC[C@@H]1C[C@H](CC(=O)OC(C)(C)C)OC(C)(C)O1 [Compound 13d]", 114),
]

* * *

- Test system: Salmonella enterica serovar Typhimurium TA98
- run_description: Salmonella/microsome assay, TA98
- cond: +S9, 300 µM
parameter: revertant His+ colonies TA98

# molecule, measured_on, data_value
records = [
    ("CC(=O)Nc1ccccc1C(F)(F)C(=O)NCC[C@@H]1C[C@H](CC(=O)OC(C)(C)C)OC(C)(C)O1 [Compound 13a]", "Salmonella enterica serovar Typhimurium TA98", 33),
    ("CC(=O)Nc1ccc(C)cc1C(F)(F)C(=O)NCC[C@@H]1C[C@H](CC(=O)OC(C)(C)C)OC(C)(C)O1 [Compound 13b]", "Salmonella enterica serovar Typhimurium TA98", 39),
    ("CC(=O)Nc1ccc(Cl)cc1C(F)(F)C(=O)NCC[C@@H]1C[C@H](CC(=O)OC(C)(C)C)OC(C)(C)O1 [Compound 13c]", "Salmonella enterica serovar Typhimurium TA98", 47),
    ("CC(=O)Nc1ccc(Br)cc1C(F)(F)C(=O)NCC[C@@H]1C[C@H](CC(=O)OC(C)(C)C)OC(C)(C)O1 [Compound 13d]", "Salmonella enterica serovar Typhimurium TA98", 34),
]
